Target: human Phosphodiesterase 10 (PDE10), PDE10A (gene 10846)
Assay: NVS_ENZ_hPDE10: NovaScreen (NVS) Enzymatic Assay for human Phosphodiesterase 10 (PDE10) (AID 2283195)
Results filed as inconclusive are left out. Activity calls are given as the source filed them. The calls were made as follows: active = hit-call score of the fitted dose curve at least 0.9, where 1 is the maximum; inconclusive = response in the unintended direction; inactive = score below 0.9.
experimental.readout: outcome

Known outcome results, listed for orientation:
COC(C)(C)CCC[C@H](C)C/C=C/C(C)=C/C(=O)OC(C)C : inactive
O=c1c2ccccc2c(=O)c2c1cc(Cl)c1[nH]c3c([nH]c12)c(Cl)cc1c(=O)c2ccccc2c(=O)c13 : inactive
O=[N+]([O-])c1ccc(Cl)cc1 : inactive
N#CCCCCC#N : inactive

Query string: Name the recorded outcome for S=c1[nH]c2ccccc2[nH]1 .
Result string: inactive
